Target: Histone acetyltransferase RTT109 (Candida albicans (strain SC5314 / ATCC MYA-2876))
Test: inhibitors of C. albicans Rtt109/Vps75 HAT, primary screen, biochemical, ThioGlo CoA-SH fluorescence, plate reader (AID 540336)
Conditions: purified Rtt109/Vps75, ThioGlo CoA-SH fluorescence, 4 h; at 34.9 µM; active compounds read high
The whole screen tested about 330,000 compounds, of which about 520 (0.16%) were called active. This is one part of a sample in which actives are shown more often than they occur.
observationType: inhibition (%)
Use % as the unit, but write only the number.

INSERT INTO assay_data (compound, observationtype, readoutunit, numericreadout) VALUES
  ('CC(=O)Oc1ccc(OC(C)=O)c2c1C1C=CC2CC1', 'inhibition', '%', -1.25),
  ('CC(=O)OCC(=O)C1(O)CCC2C3CC(C)C4=CC(=O)CCC4(C)C3C(O)CC21C (stereo unspecified)', 'inhibition', '%', -0.0615),
  ('COc1cc(/C=C/C(=O)OCC(=O)NC2CC2)cc(OC)c1OC', 'inhibition', '%', 10.9),
  ('O=C(c1cccnc1)N(Cc1ccccc1)C(=O)c1cccnc1', 'inhibition', '%', 7.15),
  ('COc1ccc(CC(=O)NC(C)c2ccc(Cl)c(Cl)c2)cc1S(=O)(=O)N1CCOCC1 (stereo unspecified)', 'inhibition', '%', -2.98);

Task: Any idea what inhibition was measured for C[C@H](O)[C@@H]1C(=O)N2CCc3ccc(N4CCOCC4)cc3[C@@H]2C[C@@H]1N(C)C(=O)C(C)(C)C ?
Output: 0.072

Task: How about CC1CN(Cc2ccco2)C(=S)N(c2ccccc2)C1=O (stereo unspecified) ?
Output: 3.62

Task: Lookup Nc1ccccc1SC(C[N+](=O)[O-])c1ccccc1 (stereo unspecified)
Output: 108

Task: How about this compound: CC(C)=CCc1ccc(O)c(=O)cc1C(C)C
Output: 6.99

Task: What would you report for C=CCNC(=O)C12CC3CC(C1)CC(C(=O)NCC=C)(C3)C2 ?
Output: -14.4

Task: // next record COC(=O)c1c(NC(=O)C2CC(C)=C(C)CC2C(=O)O)sc2c1CCCCC2 (stereo unspecified)
Output: 56.5

Task: Continue with Cc1nn(-c2ncccn2)c2c1C(=O)CC(C)(C)C2Br (stereo unspecified)
Output: 8.81

Task: Another compound: C=CCNC(=O)C1CC2c3ccccc3C1c1ccccc12 (stereo unspecified)
Output: 50.9
